Target: Rhesus PDE2A3 (Macaca mulatta, UniProt B3VTJ2)
Sequence (B3VTJ2 1-941): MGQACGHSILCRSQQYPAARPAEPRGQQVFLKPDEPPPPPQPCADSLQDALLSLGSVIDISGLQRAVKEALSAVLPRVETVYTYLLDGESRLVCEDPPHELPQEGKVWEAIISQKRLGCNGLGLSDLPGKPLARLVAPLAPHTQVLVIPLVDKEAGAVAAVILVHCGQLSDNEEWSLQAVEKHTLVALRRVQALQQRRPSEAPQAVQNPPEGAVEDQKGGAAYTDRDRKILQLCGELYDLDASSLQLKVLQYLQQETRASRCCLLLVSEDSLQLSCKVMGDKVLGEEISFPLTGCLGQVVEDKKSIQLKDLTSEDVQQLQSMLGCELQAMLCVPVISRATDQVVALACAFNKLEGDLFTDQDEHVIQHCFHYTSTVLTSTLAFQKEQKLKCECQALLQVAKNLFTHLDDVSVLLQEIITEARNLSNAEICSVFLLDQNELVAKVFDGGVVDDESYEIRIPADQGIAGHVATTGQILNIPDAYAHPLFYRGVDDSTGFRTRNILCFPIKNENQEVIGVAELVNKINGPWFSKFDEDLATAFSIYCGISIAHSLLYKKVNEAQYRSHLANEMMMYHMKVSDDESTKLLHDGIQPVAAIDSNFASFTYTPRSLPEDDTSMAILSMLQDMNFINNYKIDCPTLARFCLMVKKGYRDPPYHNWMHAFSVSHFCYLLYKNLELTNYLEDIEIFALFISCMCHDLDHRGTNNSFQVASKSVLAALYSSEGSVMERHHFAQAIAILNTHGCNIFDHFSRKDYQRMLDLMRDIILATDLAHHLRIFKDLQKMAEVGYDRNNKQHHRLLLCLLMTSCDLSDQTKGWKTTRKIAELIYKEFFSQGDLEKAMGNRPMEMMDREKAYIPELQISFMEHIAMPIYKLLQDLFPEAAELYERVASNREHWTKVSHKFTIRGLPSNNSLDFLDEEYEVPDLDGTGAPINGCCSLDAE
Assay: PDE2 fluorescence polarization (IMAP FP) inhibition assay, rhesus enzyme
Type: biochemical, rhesus macaque
Conditions: Rhesus PDE2, Lab A; read-out: Rhesus PDE2 Ki (nM) - Lab A
observation_type: Ki (nM)

Take a look at these entries with their results.
{"columns": ["molecule", "target_under_test", "Ki [nM]"],
 "data": [
  ["O=C(N[C@@H](c1ccc(OC(F)(F)F)cc1)C1CC1)c1cc(=O)[nH]c(-c2ncccn2)n1 [Example 92]", "Rhesus PDE2A3 (Macaca mulatta, UniProt B3VTJ2)", 91],
  ["C[C@@H](NC(=O)c1cc(=O)[nH]c(-c2cccc(F)c2)n1)c1ccc(C(F)(F)F)cc1 [Example 138]", "Rhesus PDE2A3 (Macaca mulatta, UniProt B3VTJ2)", 76],
  ["CC(C)(NC(=O)c1cc(=O)[nH]c(-c2ccccc2)n1)c1ccc(OC(F)(F)F)c(F)c1 [Example 161]", "Rhesus PDE2A3 (Macaca mulatta, UniProt B3VTJ2)", 88]
]}

P = C[C@H](c1ccc(C(F)(F)F)cc1)N(C)C(=O)c1cc(=O)[nH]c(C2CC2)n1 [Example 209]
Q = C[C@@H](NC(=O)c1cc(=O)[nH]c(-c2ncccn2)n1)c1ccc(SC(F)(F)F)c(F)c1 [Example 260]
R = CC(C)c1ccc([C@@H](C)NC(=O)c2cc(=O)[nH]c(C3CC3)n2)cc1 [Example 298]
S = CC(C)[C@@H](NC(=O)c1cc(=O)[nH]c(-c2ccccc2)n1)c1ccc(OC(F)(F)F)cc1 [Example 166]
T = CC(NC(=O)c1cc(=O)[nH]c(-c2ncccn2)n1)c1ncc(C(F)(F)F)cn1 (stereo not drawn) [Example 105]
Please order the records by their reported Ki, lowest number first. Output the labels ranked as instructed.
Q, S, R, T, P
(Q: 1 nM, S: 3.3 nM, R: 18 nM, T: 3470 nM, P: 17400 nM)

====

Molecular target: Rhesus PDE2A3 (Macaca mulatta, UniProt B3VTJ2)
Test: PDE2 fluorescence polarization (IMAP FP) inhibition assay, rhesus enzyme
Assay type: biochemical, rhesus macaque
Conditions: Rhesus PDE2, Lab B; read-out: Rhesus PDE2 Ki (nM) - Lab B
observation_type: Ki (nM)

Take a look at these entries with their results.
{"columns": ["molecule", "unit_string", "quantitative_readout"],
 "data": [
  ["COc1ccc(Cc2nc(C(=O)N[C@@H](c3ccc(OC(F)(F)F)c(F)c3)C3CC3)cc(=O)[nH]2)cc1", "nM", 2.1],
  ["COc1ccc(Cc2nc(C(=O)N[C@@H](c3ccc(SC(F)(F)F)cc3)C(C)C)cc(=O)[nH]2)cc1F", "nM", 1.2],
  ["COc1ccc(Cc2nc(C(=O)N[C@@H](c3ccc(S(F)(F)(F)(F)F)cc3)C(C)C)cc(=O)[nH]2)cc1", "nM", 1.5]
]}

I = O=C(NC(c1ccccc1)c1ccc(C(F)(F)F)cc1)c1cc(=O)[nH]c(-c2ccccc2)n1 (stereo not shown)
II = Cc1nc(C(=O)N[C@@H](c2ccc(C3CC3)c(F)c2)C2CC2)cc(=O)[nH]1
III = C[C@@H](NC(=O)c1cc(=O)[nH]c(-c2ncccn2)n1)c1ccc(S(F)(F)(F)(F)F)cc1
IV = COc1ccc(Cc2nc(C(=O)N[C@@H](c3ccc(SC(F)(F)F)cc3)C(C)(C)C)cc(=O)[nH]2)cc1F
V = O=C(NC1(c2ccc(SC(F)(F)F)cc2)CC1)c1cc(=O)[nH]c(-c2ncccn2)n1
Please list the entries, largest Ki first. Output the labels ranked as instructed.
I, V, II, III, IV

====

Molecular target: human PDE2A1 (Homo sapiens (Human))
Assay: IMAP FP PDE selectivity panel, human PDE2A1
Assay type: biochemical
Conditions: Human PDE2, Lab A; read-out: Human PDE2 Ki (nM) - Lab A
observation_type: Ki (nM)

{"columns": ["molecule", "Ki (nM)"],
 "data": [
  ["CC(C)[C@@H](NC(=O)c1cc(=O)[nH]c(-c2ccccc2)n1)c1ccc(C(F)(F)F)cc1", 1.9],
  ["CC[C@@H](NC(=O)c1cc(=O)[nH]c(C)n1)c1ccc(OC(F)(F)F)c(F)c1", 8.8]
]}

1 = C[C@@H](NC(=O)c1cc(=O)[nH]c(-c2ccccc2)n1)c1ccc(C(F)(F)F)cc1
2 = O=C(N[C@@H](c1ccc(OC(F)(F)F)c(F)c1)C1CC1)c1cc(=O)[nH]c(-c2ccccc2)n1
Smaller Ki value? Options are 1 and 2 Mark your answer with the label of the selected entry.
2
(2: 3.9 nM, 1: 6.7 nM)

I = C[C@@H](NC(=O)c1cc(=O)[nH]c(-c2ncccn2)n1)c1ccc(C(F)(F)F)cc1F
II = Cc1nc(C(=O)N[C@H](C)c2cccc3ccccc23)cc(=O)[nH]1
Smaller Ki value? Options are I and II Mark your answer with the label of the selected entry.
I
(I: 24 nM, II: 66 nM)

1 = CC(C)[C@@H](NC(=O)c1cc(=O)[nH]c(C2CC2)n1)c1ccc(C(F)(F)F)cc1
2 = Cc1nc(C(=O)NC2(c3ccc(SC(F)(F)F)cc3)CC2)cc(=O)[nH]1
3 = Cc1nc(C(=O)NC(C(=O)O)c2ccc(C(F)(F)F)cc2)cc(=O)[nH]1 (single isomer, unassigned) [Example 328]
4 = COc1cc(OC(F)(F)F)ccc1C(C)NC(=O)c1cc(=O)[nH]c(-c2ccccc2)n1 (centres unmarked)
Please list the entries, largest Ki first. Output the labels ranked as instructed.
3, 2, 4, 1
(3: 38 nM, 2: 15 nM, 4: 3.1 nM, 1: 1.3 nM)

====

Molecular target: human PDE2A1 (Homo sapiens (Human), UniProt O00408)
Sequence (O00408 other isoform, or with tags, fused parts or gaps): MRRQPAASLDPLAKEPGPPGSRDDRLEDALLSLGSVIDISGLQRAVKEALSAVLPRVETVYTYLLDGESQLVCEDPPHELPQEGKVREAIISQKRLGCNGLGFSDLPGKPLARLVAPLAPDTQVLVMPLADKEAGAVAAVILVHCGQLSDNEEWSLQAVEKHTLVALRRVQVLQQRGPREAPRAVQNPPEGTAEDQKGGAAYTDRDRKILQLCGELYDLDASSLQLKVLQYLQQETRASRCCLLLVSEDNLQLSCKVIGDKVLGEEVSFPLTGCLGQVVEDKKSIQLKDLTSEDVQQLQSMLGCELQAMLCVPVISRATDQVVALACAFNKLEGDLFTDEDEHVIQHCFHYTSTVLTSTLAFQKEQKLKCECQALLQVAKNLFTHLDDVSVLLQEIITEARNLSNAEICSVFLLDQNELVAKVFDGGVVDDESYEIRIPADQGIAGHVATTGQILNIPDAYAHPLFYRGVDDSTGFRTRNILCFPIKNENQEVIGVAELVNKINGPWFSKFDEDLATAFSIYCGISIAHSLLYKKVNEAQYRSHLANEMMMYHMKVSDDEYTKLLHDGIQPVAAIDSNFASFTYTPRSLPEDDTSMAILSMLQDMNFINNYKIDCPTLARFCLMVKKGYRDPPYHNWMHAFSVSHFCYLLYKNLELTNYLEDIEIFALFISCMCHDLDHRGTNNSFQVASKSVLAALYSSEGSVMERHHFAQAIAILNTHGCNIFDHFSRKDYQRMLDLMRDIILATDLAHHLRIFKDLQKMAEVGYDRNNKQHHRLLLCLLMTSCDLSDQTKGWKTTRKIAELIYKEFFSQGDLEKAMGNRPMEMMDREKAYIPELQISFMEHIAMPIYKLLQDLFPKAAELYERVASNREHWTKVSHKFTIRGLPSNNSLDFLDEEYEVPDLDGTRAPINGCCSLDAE
Assay: IMAP FP PDE selectivity panel, human PDE2A1
Type: biochemical
Settings: Human PDE2, Lab A; read-out: Human PDE2 Ki (nM) - Lab A
observation_type: Ki (nM)

Take a look at these entries with their results.
{"columns": ["cpd_smiles", "Ki (nM)"],
 "data": [
  ["O=C(NC1(c2ccc(C(F)(F)F)cc2)CCCC1)c1cc(=O)[nH]c(C2CC2)n1", 29],
  ["O=C(NC1(c2ccc(C(F)(F)F)c(F)c2)CC1)c1cc(=O)[nH]c(-c2ccccc2)n1", 2.3]
]}

P = C[C@@H](NC(=O)c1cc(=O)[nH]c(-c2ccccc2)n1)c1ccc(C(F)(F)F)c(F)c1
Q = Cc1nc(C(=O)N[C@H](C)c2ccc(C(F)(F)F)cc2)cc(=O)[nH]1
Sorting by Ki in descending order, would P or Q appear first? Mark your answer with the label of the selected entry.
Q

====

Target: UniProt O00408
Test: IMAP FP PDE selectivity panel, human PDE2A1
Format: biochemical
Details: Human PDE2, Lab B; read-out: Human PDE2 Ki (nM) - Lab B
observation_type: Ki (nM)

{"columns": ["compound", "target_under_test", "quantitative_readout"],
 "data": [
  ["Cc1nc(C(=O)N[C@]2(c3ccc(C(C)C)cc3)C[C@H]2C)cc(=O)[nH]1 (single isomer, unassigned) [Example 665]", "UniProt O00408", 4.95],
  ["O=C(N[C@@H]1CCCc2cc(C(F)(F)F)ccc21)c1cc(=O)[nH]c(-c2ccccc2)n1", "UniProt O00408", 96],
  ["CC1([C@@H](NC(=O)c2cc(=O)[nH]c(C3CC3)n2)c2ccc(OC(F)F)cc2)CC1", "UniProt O00408", 7],
  ["Cc1nc(C(=O)N[C@@H](c2ccc(CC(F)(F)F)cc2)C(C)(C)C)cc(=O)[nH]1", "UniProt O00408", 8.2]
]}

1 = Cc1nc(C(=O)N[C@@H](c2ccc(C(F)(F)F)c(F)c2)C(C)(C)O)cc(=O)[nH]1
2 = C[C@@H](NC(=O)c1cc(=O)[nH]c(-c2ncccn2)n1)c1cc(F)c(C(F)(F)F)c(F)c1
3 = CC[C@@H](NC(=O)c1cc(=O)[nH]c(Cc2ccc(OC)cc2)n1)c1ccc(SC(F)(F)F)c(F)c1
Please order the records by their reported Ki, lowest number first. Output the labels ranked as instructed.
3, 1, 2
(3: 1.7 nM, 1: 8.6 nM, 2: 39 nM)

====

Molecular target: human PDE2A1 (Homo sapiens (Human), UniProt O00408)
Assay: IMAP FP PDE selectivity panel, human PDE2A1
Type: biochemical
Details: Human PDE2, Lab B; read-out: Human PDE2 Ki (nM) - Lab B
observation_type: Ki (nM)

{"columns": ["compound", "Ki / nM"],
 "data": [
  ["Cc1nc(C(=O)N[C@@H](c2ccc(C(F)F)cc2)C(C)(C)C)cc(=O)[nH]1", 7.3]
]}

I = CC(NC(=O)c1cc(=O)[nH]c(-c2ccccc2)n1)c1ccc(-n2cncn2)cc1 (stereo not shown)
II = CC[C@@H](NC(=O)c1cc(=O)[nH]c(-c2ncccn2)n1)c1ccc(OC(F)(F)F)c(F)c1
Sorting by Ki in descending order, would I or II appear first? Mark your answer with the label of the selected entry.
I
(I: 354 nM, II: 9.8 nM)
